test system: BAW (Spodoptera exigua); experiment: Bioassay on Beet Armyworm (BAW), 128-well diet tray; type: in vivo; details: Spodoptera exigua, 168 h; percent mortality, second instar larvae, 50 μg/cm^2 on diet, five to seven days; read-out: Rating BAW

# structure smiles string, tested system, pest or weed control at 50 µg/cm2
measured = [
    ("COc1cc(C)c(N/C(=N/C(=O)Nc2ccc(-c3ncn(-c4ccc(OC(F)(F)F)cc4)n3)cc2)SCOC(=O)C(C)C)c(C)c1", "BAW (Spodoptera exigua)", "50 to 100%"),
    ("Cc1ccccc1N/C(=N\\C(=O)Nc1ccc(-c2ncn(-c3ccc(OC(F)(F)F)cc3)n2)cc1)SCOC(=O)C(C)C", "BAW (Spodoptera exigua)", "50 to 100%"),
    ("CC(C)c1ccc(F)cc1N/C(S)=N/C(=O)Nc1ccc(-c2ncn(-c3ccc(OC(F)(F)F)cc3)n2)cc1", "BAW (Spodoptera exigua)", "50 to 100%"),
    ("Cc1cccc(C)c1N/C(S)=N/C(=O)Nc1ccc(-c2ncn(-c3ccc(C(F)(F)F)cc3)n2)cc1", "BAW (Spodoptera exigua)", "50 to 100%"),
    ("COc1ccc(N/C(=N/C(=O)Nc2ccc(-c3ncn(-c4ccc(OC(F)(F)F)cc4)n3)cc2)SCS[C@@H]2O[C@@H](C)[C@H](OC)[C@@H](OC)[C@H]2OC)c(C)c1", "BAW (Spodoptera exigua)", "50 to 100%"),
    ("CC(C)c1cc(F)ccc1N1C(=O)CS/C1=N\\C(=O)Nc1ccc(-c2ncn(-c3ccc(OC(F)(F)F)cc3)n2)cc1", "BAW (Spodoptera exigua)", "50 to 100%"),
]

###

test system: Yellow Fever Mosquito YFM (Aedes aegypti); experiment: Bioassay on Yellow Fever Mosquito (YFM) larvae, 96-well plate; format: in vivo; details: mortality of about 1 day-old larvae, scored after 3 days

# structure smiles string, tested system, Rating YFM
records = [
    ("Cc1cc(-c2ncn(-c3ccc(OC(F)(F)F)cc3)n2)ccc1NC(=O)/N=C(\\S)Nc1ccccc1C(C)C", "Yellow Fever Mosquito YFM (Aedes aegypti)", "A (80-100)"),
    ("COc1ccc(N2C(=O)CS/C2=N\\C(=O)Nc2ccc(-c3ncn(-c4ccc(OC(F)(F)F)cc4)n3)cc2)c(C)c1", "Yellow Fever Mosquito YFM (Aedes aegypti)", "A (80-100)"),
    ("Cc1ccccc1N1C(=O)CS/C1=N\\C(=O)Nc1ccc(-c2ncn(-c3ccc(OC(F)(F)F)cc3)n2)cc1", "Yellow Fever Mosquito YFM (Aedes aegypti)", "A (80-100)"),
]

###

system: BAW (Spodoptera exigua); assay: Bioassay on Beet Armyworm (BAW), 128-well diet tray; type: in vivo; conditions: Spodoptera exigua, 168 h; percent mortality, second instar larvae, 50 μg/cm^2 on diet, five to seven days; read-out: Rating BAW
parameter: pest or weed control at 50 µg/cm2

# structure smiles string, parameter, test result
data = [
    ("CC(C)C(=O)OCS/C(=N/C(=O)Nc1ccc(-c2ncn(-c3ccc(OC(F)(F)F)cc3)n2)cc1)Nc1c(F)cccc1F", "pest or weed control at 50 µg/cm2", "50 to 100%"),
    ("CCc1cccc(C)c1N/C(S)=N/C(=O)Nc1ccc(-c2ncn(-c3ccc(OC(F)(F)F)cc3)n2)cc1", "pest or weed control at 50 µg/cm2", "50 to 100%"),
    ("Cc1cccc(C)c1N/C(S)=C/C(=O)Nc1ccc(-c2ncn(-c3ccc(OC(F)(F)F)cc3)n2)cc1", "pest or weed control at 50 µg/cm2", "50 to 100%"),
    ("Cc1cc(C)cc(N/C(S)=N/C(=O)Nc2ccc(-c3ncn(-c4ccc(OC(F)(F)F)cc4)n3)cc2)c1", "pest or weed control at 50 µg/cm2", "50 to 100%"),
]
